System: Mycobacterium tuberculosis
run description: Antimicrobial activity against Mycobacterium tuberculosis H37Rv by Alamar blue assay
Type: functional
# IC90 listing for each entry below
Express it in µM; write the number only.

[[record]]
compound = "CN1CC2C(=O)N(c3ccc(Cl)cc3)C(=O)C2C12C(=O)c1ccccc1C2=O (centres undefined)"
experimental_result = 5.3

[[record]]
compound = "NCC[C@H](O)C(=O)N[C@@H]1C[C@H](N)[C@@H](O[C@H]2O[C@H](CN)[C@@H](O)[C@H](O)[C@H]2O)[C@H](O)[C@H]1O[C@H]1O[C@H](CO)[C@@H](O)[C@H](N)[C@H]1O"
experimental_result = 0.08

[[record]]
compound = "CN1CC2C(=O)N(c3ccccc3)C(=O)C2C12C(=O)c1ccccc1C2=O (centres undefined)"
experimental_result = 25.9


Consider the record given below.
Query: # return recorded IC90 for entry CN1CC2C(=O)N(c3ccc([N+](=O)[O-])cc3)C(=O)C2C12C(=O)c1ccccc1C2=O (centres undefined)
Response: 66.5
